What Total impurities was measured for each of the following?
# Experiment: Stability of liquid pharmaceutical forms (peptide 0.2 %, benzalkonium chloride 0.01 %, water) during storage; single and total impurities
# Assay type: physicochemical
# Measurement setup: stored for 1 month at +4° C.; solution 0.2 mass % peptide, 0.01 mass % benzalkonium chloride
Non-standard residues stand in square brackets, D forms with d. No end group written: not given here. Hyp = O=C(O)[C@@H]1C[C@@H](O)CN1
Numbers only, in %.

>  <Substance>
Thr-Lys-Pro-Arg-Pro-Phe (TKPRPF; not fully specified; printed as Thr-Lys-Pro-Arg-Pro-Phe) [hexapeptide described in RU2507212, comparison peptide, reference compound]

>  <Total impurities [%]>
0.17

$$$$
>  <Substance>
Thr-Lys-Hyp-Arg-Hyp (TK[Hyp]R[Hyp]) [pentapeptide of the invention containing hydroxyproline]

>  <Total impurities [%]>
0.09

$$$$

Below: the item to evaluate.
Query string: What Total impurities value was documented for this substance, Thr-Lys-Pro-Arg-Pro (TKPRP; not fully specified; printed as Thr-Lys-Pro-Arg-Pro) [pentapeptide described in RU2507212, comparison peptide, reference compound] ?
Result string: 0.09
